Tested on: Candida krusei ATCC 6258
Experiment: In vitro antifungal broth microdilution test
Assay type: cell-based
Conditions: Pichia kudriavzevii, ATCC6258; 48h, 35 °C, RPMI 1640 pH 7.0, CLSI M27-A2 (IC80 value)
readout_label: MIC (µM)

{"columns": ["test_smiles", "test_target", "relation_symbol", "observed"],
 "data": [
  ["O=S(=O)(O)c1cc(Br)c(O)c2ncccc12", "Candida krusei ATCC 6258", "=", 3.9],
  ["Oc1ccc(C=Cc2ccc3c(Cl)cc(Cl)c(O)c3n2)cc1", "Candida krusei ATCC 6258", ">", 125],
  ["O=S(=O)(NCCc1ccccc1)c1ccc(O)c2ncccc12", "Candida krusei ATCC 6258", "=", 125]
]}

* * *

Quick reference: MIC of the listed items.
System: M. smegmatis MC2155

{"columns": ["compound", "relation_symbol", "MIC / µg/mL"],
 "data": [
  ["Oc1ccc(C=Cc2ccc3c(Cl)cc(Cl)c(O)c3n2)c(O)c1", "=", 100],
  ["NC(=O)c1cnccn1 [PZA, pyrazinamide, reference compound]", ">", 100],
  ["NNC(=O)c1ccncc1 [INH, isoniazid, reference compound]", "=", 39],
  ["Oc1cc(O)cc(C=Cc2ccc3c(Cl)cc(Cl)c(O)c3n2)c1", ">", 100],
  ["Oc1ccc(C=Cc2ccc3c(Cl)cc(Cl)c(O)c3n2)cc1", "=", 150],
  ["CC(=O)Oc1ccc(O)c(C=Cc2ccc3c(Cl)cc(Cl)c(O)c3n2)c1", "=", 100],
  ["Oc1c(Cl)cc(Cl)c2ccc(C=Cc3ccc(C=Cc4ccc5c(Cl)cc(Cl)c(O)c5n4)cc3)nc12", "=", 40]
]}

* * *

Tested on: M. kansasii CIT11/06
Experiment: In vitro antimycobacterial evaluation (alamarBlue, 96 well plate)
Assay type: cell-based
Conditions: Mycobacterium kansasii, CIT11/06, 120 h, Middlebrook broth, 37 °C 5 days, read-out: MIC/IC90 M. kansasii
Listed below: MIC values for each entry.

{"columns": ["molecule", "MIC"],
 "data": [
  ["NC(=O)c1cnccn1 [PZA, pyrazinamide, reference compound]", "> 100 µg/mL"],
  ["Oc1cc(O)cc(C=Cc2ccc3c(Cl)cc(Cl)c(O)c3n2)c1", "> 300 µg/mL"],
  ["NNC(=O)c1ccncc1 [INH, isoniazid, reference compound]", "< 10 µg/mL"],
  ["CC(=O)Oc1ccc(O)c(C=Cc2ccc3c(Cl)cc(Cl)c(O)c3n2)c1", "> 300 µg/mL"],
  ["Oc1c(Cl)cc(Cl)c2ccc(C=Cc3ccc(C=Cc4ccc5c(Cl)cc(Cl)c(O)c5n4)cc3)nc12", "40 µg/mL"],
  ["Oc1ccc(C=Cc2ccc3c(Cl)cc(Cl)c(O)c3n2)cc1", "> 300 µg/mL"],
  ["Oc1ccc(C=Cc2ccc3c(Cl)cc(Cl)c(O)c3n2)c(O)c1", "> 100 µg/mL"]
]}

* * *

Assay: Lipophilicity determination by RP-HPLC (capacity factor k / log k)
Type: physicochemical
Conditions: C18 column, isocratic MeOH 55.0% / H2O 45.0%
Method: A Waters Alliance 2695 XE HPLC separation module and Waters Photodiode Array Detector 2996 (Waters Corp., Milford, MA, USA) were used. A Symmetry® C18 5 μm, 4.6 × 250 mm, Part No. WAT054275, (Waters Corp., Milford, MA, USA) chromatographic column was used. The HPLC separation process was monitored by Millennium32® Chromatography Manager Software, Waters 2004 (Waters Corp., Milford, MA, USA). A mixture of MeOH p.a. […] Retention times (tR) were measured in minutes. […]

{"columns": ["test_smiles", "log k"],
 "data": [
  ["O=S(=O)(NCCCCc1ccccc1)c1ccc(O)c2ncccc12", 0.3902],
  ["Oc1cc(O)cc(C=Cc2ccc3c(Cl)cc(Cl)c(O)c3n2)c1", 1.5867],
  ["CC(=O)Oc1ccc(O)c(C=Cc2ccc3c(Cl)cc(Cl)c(O)c3n2)c1", 1.5864],
  ["O=S(=O)(NCCc1ccccc1)c1ccc(O)c2ncccc12", 0.3349],
  ["O=S(=O)(O)c1cc(Br)c(O)c2ncccc12", 0.3786]
]}

* * *

Tested on: Candida tropicalis 156
Test: In vitro antifungal broth microdilution test
Format: cell-based
Settings: Candida tropicalis, 156; 48h, 35 °C, RPMI 1640 pH 7.0, CLSI M27-A2 (IC80 value)
The entries below come with measured MIC values attached.
readout_label: MIC

{"columns": ["compound", "test_target", "readout_label", "observed"],
 "data": [
  ["O=[N+]([O-])c1cc(S(=O)(=O)O)c2cccnc2c1O [Compound 2]", "Candida tropicalis 156", "MIC", "> 250 µM"],
  ["Oc1cc(O)cc(C=Cc2ccc3c(Cl)cc(Cl)c(O)c3n2)c1 [Compound 12]", "Candida tropicalis 156", "MIC", "> 125 µM"],
  ["OC(Cn1cncn1)(Cn1cncn1)c1ccc(F)cc1F [FLU, fluconazole, reference compound]", "Candida tropicalis 156", "MIC", "> 125 µM"],
  ["O=[N+]([O-])c1ccc(O)c2ncccc12 [Compound 1, 5-Nitroquinolin-8-ol]", "Candida tropicalis 156", "MIC", "> 500 µM"],
  ["O=S(=O)(NCCCCc1ccccc1)c1ccc(O)c2ncccc12 [Compound 7]", "Candida tropicalis 156", "MIC", "> 125 µM"],
  ["Oc1ccc(C=Cc2ccc3c(Cl)cc(Cl)c(O)c3n2)cc1 [Compound 10]", "Candida tropicalis 156", "MIC", "> 125 µM"]
]}

* * *

Tested on: Absidia corymbifera 272
Experiment: In vitro antifungal broth microdilution test
Type: cell-based
Conditions: Lichtheimia corymbifera, 272; 48h, 35 °C, RPMI 1640 pH 7.0, CLSI M38-A (IC50 value)
Each entry below lists one item and its recorded MIC value.

{"columns": ["compound", "test_target", "reading_unit", "relation_symbol", "MIC"],
 "data": [
  ["O=S(=O)(NCCc1ccccc1)c1ccc(O)c2ncccc12 [Compound 6]", "Absidia corymbifera 272", "µM", "=", 125],
  ["O=S(=O)(O)c1cc(Br)c(O)c2ncccc12 [Compound 3]", "Absidia corymbifera 272", "µM", "=", 7.8],
  ["O=S(=O)(NCCCCc1ccccc1)c1ccc(O)c2ncccc12 [Compound 7]", "Absidia corymbifera 272", "µM", ">", 125],
  ["Oc1ccc(C=Cc2ccc3c(Cl)cc(Cl)c(O)c3n2)cc1 [Compound 10]", "Absidia corymbifera 272", "µM", "=", 62.5],
  ["Oc1cc(O)cc(C=Cc2ccc3c(Cl)cc(Cl)c(O)c3n2)c1 [Compound 12]", "Absidia corymbifera 272", "µM", "=", 62.5],
  ["CC(=O)Nc1ccc2cccc(OC(C)=O)c2n1 [Compound 8, 2-Acetylaminoquinolin-8-yl acetate]", "Absidia corymbifera 272", "µM", "=", 62.5],
  ["OC(Cn1cncn1)(Cn1cncn1)c1ccc(F)cc1F [FLU, fluconazole, reference compound]", "Absidia corymbifera 272", "µM", ">", 125]
]}

* * *

Test system: Absidia corymbifera 272
Assay: In vitro antifungal broth microdilution test
Assay type: cell-based
Details: Lichtheimia corymbifera, 272; 24h, 35 °C, RPMI 1640 pH 7.0, CLSI M38-A (IC50 value)
# Lookup of reported MIC keyed by entry

{"columns": ["molecule", "MIC"],
 "data": [
  ["O=[N+]([O-])c1ccc(O)c2ncccc12 [Compound 1, 5-Nitroquinolin-8-ol]", "> 500 µM"],
  ["OC(Cn1cncn1)(Cn1cncn1)c1ccc(F)cc1F [FLU, fluconazole, reference compound]", "> 125 µM"],
  ["O=[N+]([O-])c1cc(S(=O)(=O)O)c2cccnc2c1O [Compound 2]", "> 250 µM"],
  ["O=S(=O)(NCCCCc1ccccc1)c1ccc(O)c2ncccc12 [Compound 7]", "> 125 µM"]
]}
